Provenance of the data: patent US12421249B2

- measured_on: UniProtKB O14791
- protocol: Multi-Tox Assay (MultiTox-Fluor Multiplex Cytotoxicity Assay in tet-inducible APOL1 T-REx-HEK293 cells; Table 46 does not say which APOL1 variant G0/G1/G2)
- protocol_conditions: IP50 = IC50 for cell proliferation, APOL1 variant not given
Quick reference: IC50 of the listed items.

>  <molecule>
C[C@H]1C[C@@]2(C[C@@H](c3ccc(O)nc3)N1)OCCc1cc(Cl)sc12 (racemic)

>  <IC50>
< 50 nM

$$$$
>  <molecule>
C[C@H]1C[C@@]2(C[C@@H](c3cccn4ccnc34)N1)OCCc1cc(Cl)sc12 (stereo in doubt)

>  <IC50>
50 to 500 nM

$$$$
>  <molecule>
C[C@H]1C[C@@]2(C[C@@H](c3cn(CC4CCS(=O)(=O)C4)nn3)N1)OCC(F)(F)c1cc(Cl)sc12 (stereo partly drawn)

>  <IC50>
< 50 nM

$$$$
>  <molecule>
CC1COC2(C[C@@H](c3cn(C)nn3)N[C@@H](C)C2)c2cc(Cl)sc21 (stereo in doubt) [Compound 12]

>  <IC50>
< 50 nM

$$$$
>  <molecule>
C[C@H]1C[C@@]2(C[C@@H](c3cn(Cc4cccc(O)c4)nn3)N1)OC[C@@H](O)c1cc(Cl)sc12

>  <IC50>
50 to 500 nM

$$$$
>  <molecule>
C[C@H]1C[C@@]2(C[C@@H](c3cn(CC4(F)CCOCC4)nn3)N1)OC[C@@H](O)c1cc(Cl)sc12

>  <IC50>
> 500 nM

$$$$
>  <molecule>
C[C@H]1C[C@@]2(C[C@@H](c3cccc(=O)[nH]3)N1)OCCc1cc(Cl)sc12 (racemic)

>  <IC50>
50 to 500 nM

$$$$
>  <molecule>
Cc1nc(Cn2cc([C@@H]3C[C@]4(C[C@H](C)N3)OCC(F)(F)c3cc(Cl)sc34)nn2)oc1C

>  <IC50>
< 50 nM

$$$$
>  <molecule>
COc1ccc(Cn2cc([C@@H]3C[C@]4(C[C@H](C)N3)OCC(F)(F)c3cc(Cl)sc34)nn2)cn1

>  <IC50>
50 to 500 nM

$$$$

====

- measured_on: APOL1 G1 (Homo sapiens, UniProt O14791, I384M/S342G)
- protocol: Trypanosoma brucei brucei Lysis Assay Using APOL1 Recombinant Protein (AlamarBlue viability readout)
- Format: cell-based
- protocol_conditions: Trypanosome Assay; IP50 = IC50 for cell proliferation; read-out: Trypanosome Assay IP50
Quick reference: IC50 of the listed items.
measurement_type: IC50

>  <compound>
C[C@H]1C[C@@]2(C[C@@H](c3c[nH]c(C4CC4)n3)N1)OCCc1cc(Cl)sc12 (racemic) [Compound 130]

>  <data_value>
0.05 to 0.5 µM

$$$$
>  <compound>
C[C@H]1C[C@@]2(C[C@@H](c3cocn3)N1)OCCc1cc(Cl)sc12 (racemic) [Compound 79]

>  <data_value>
< 0.05 µM

$$$$
>  <compound>
C[C@H]1C[C@@]2(C[C@@H](c3cnc(N(C)C)nc3)N1)OCCc1cc(Cl)sc12 (racemic) [Compound 75]

>  <data_value>
< 0.05 µM

$$$$
>  <compound>
C[C@H]1C[C@@]2(C[C@@H](c3cccc(S(N)(=O)=O)c3)N1)OCCc1cc(Cl)sc12 (racemic) [Compound 147]

>  <data_value>
0.05 to 0.5 µM

$$$$
>  <compound>
Cc1nc([C@@H]2C[C@]3(C[C@H](C)N2)OCCc2cc(Cl)sc23)oc1C (racemic) [Compound 144]

>  <data_value>
0.05 to 0.5 µM

$$$$
>  <compound>
Cc1cc([C@@H]2C[C@]3(C[C@H](C)N2)OCCc2cc(Cl)sc23)nc(N(C)C)n1 (racemic) [Compound 138]

>  <data_value>
0.05 to 0.5 µM

$$$$
>  <compound>
CC1CC2(CC(C(C)C)N1)OCCc1cc(Cl)sc12 (mixture of isomers) [Compound 214]

>  <data_value>
0.05 to 0.5 µM

$$$$

====

Quick reference: IC50 of the listed items.
- measured_on: APOL1 G1 (Homo sapiens, UniProt O14791, I384M/S342G)
- Sequence (O14791 28-398 S342G/I384M): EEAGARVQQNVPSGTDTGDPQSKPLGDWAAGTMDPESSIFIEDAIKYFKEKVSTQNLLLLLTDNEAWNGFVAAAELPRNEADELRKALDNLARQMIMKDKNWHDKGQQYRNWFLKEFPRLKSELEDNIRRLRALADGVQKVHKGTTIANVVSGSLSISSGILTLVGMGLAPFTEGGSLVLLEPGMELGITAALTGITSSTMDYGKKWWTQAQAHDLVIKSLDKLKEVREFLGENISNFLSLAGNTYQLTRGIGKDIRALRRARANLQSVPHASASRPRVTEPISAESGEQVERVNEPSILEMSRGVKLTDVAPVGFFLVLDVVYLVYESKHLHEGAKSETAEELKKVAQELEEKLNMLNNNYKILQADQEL
- protocol: Trypanosoma brucei brucei Lysis Assay Using APOL1 Recombinant Protein (AlamarBlue viability readout)
- Format: cell-based
- protocol_conditions: Trypanosome Assay; IP50 = IC50 for cell proliferation; read-out: Trypanosome Assay IP50
- Text: Trypanosoma brucei brucei is a blood stream parasite to which human, gorillas, and baboons are immune due to the presence of the APOL1 protein in their HDL particles. […] Briefly, the AlamarBlue active compound, resazurin, a blue, water soluble, non-toxic and cell permeable molecule, which can be followed by absorbance, is reduced by various metabolic pathways into resorufin, a red compound which can be followed by either absorbance or fluorescence. […]

>  <compound>
COc1ccc([C@@H]2C[C@]3(C[C@H](C)N2)OCCc2cc(Cl)sc23)cn1 (racemic)

>  <IC50>
< 50 nM

$$$$
>  <compound>
CCOc1cc([C@@H]2C[C@]3(C[C@H](C)N2)OCCc2cc(Cl)sc23)ccc1O (racemic)

>  <IC50>
< 50 nM

$$$$
>  <compound>
CC(C)C1CC2(CC(c3cn(C)nn3)N1)OCCc1cc(C(F)(F)F)sc12 (stereo not shown)

>  <IC50>
50 to 500 nM

$$$$
>  <compound>
CC1CC2(CC(c3cnn(CCS(C)(=O)=O)c3)N1)OCCc1cc(Cl)sc12 (stereo not shown)

>  <IC50>
< 50 nM

$$$$
>  <compound>
CC(C)Cc1cc2c(s1)C1(C[C@@H](C)N[C@@H](C)C1)OCC2 (single isomer, unassigned)

>  <IC50>
> 500 nM

$$$$
>  <compound>
C[C@H]1C[C@@]2(C[C@@H](c3cccc4cn[nH]c34)N1)OCCc1cc(Cl)sc12 (racemic)

>  <IC50>
> 500 nM

$$$$
>  <compound>
CCc1cc2c(s1)C(C)COC21C[C@@H](c2cn(C)nn2)N[C@@H](C)C1 (stereo in doubt) [Compound 11]

>  <IC50>
< 50 nM

$$$$

====

Quick reference: IC50 of the listed items.
- measured_on: APOL1 G1 (Homo sapiens, UniProt O14791, I384M/S342G)
- protocol: Trypanosoma brucei brucei Lysis Assay Using APOL1 Recombinant Protein (AlamarBlue viability readout)
- Type: cell-based
- protocol_conditions: Trypanosome Assay; IP50 = IC50 for cell proliferation; read-out: Trypanosome Assay IP50
measurement_type: IC50

>  <compound>
C[C@H]1C[C@@]2(C[C@@H](c3cnc(C4CCOCC4)o3)N1)OCCc1cc(Cl)sc12 (racemic)

>  <measured_on>
APOL1 G1 (Homo sapiens, UniProt O14791, I384M/S342G)

>  <data_value>
50 to 500 nM

$$$$
>  <compound>
Cc1nc([C@@H]2C[C@]3(C[C@H](C)N2)OCCc2cc(Cl)sc23)co1 (racemic)

>  <measured_on>
APOL1 G1 (Homo sapiens, UniProt O14791, I384M/S342G)

>  <data_value>
50 to 500 nM

$$$$
>  <compound>
Cc1nc([C@@H]2C[C@]3(C[C@H](C)N2)OCCc2cc(Cl)sc23)c[nH]1 (racemic)

>  <measured_on>
APOL1 G1 (Homo sapiens, UniProt O14791, I384M/S342G)

>  <data_value>
> 500 nM

$$$$
>  <compound>
C[C@@H]1CC2(C[C@H](C)N1)OCCc1cc(Br)sc12 (single isomer, unassigned)

>  <measured_on>
APOL1 G1 (Homo sapiens, UniProt O14791, I384M/S342G)

>  <data_value>
50 to 500 nM

$$$$
>  <compound>
CC1CC2(CC(c3cn[nH]c3)N1)OCCc1cc(Cl)sc12 (stereo not shown)

>  <measured_on>
APOL1 G1 (Homo sapiens, UniProt O14791, I384M/S342G)

>  <data_value>
< 50 nM

$$$$
>  <compound>
C[C@H]1C[C@@]2(C[C@@H](c3ccc(O)nn3)N1)OCCc1cc(Cl)sc12 (stereo in doubt)

>  <measured_on>
APOL1 G1 (Homo sapiens, UniProt O14791, I384M/S342G)

>  <data_value>
< 50 nM

$$$$
>  <compound>
CC1COC2(C[C@@H](c3cn(C)nn3)N[C@@H](C)C2)c2cc(C(F)(F)F)sc21 (stereo in doubt)

>  <measured_on>
APOL1 G1 (Homo sapiens, UniProt O14791, I384M/S342G)

>  <data_value>
< 50 nM

$$$$
